- assayed system: C-C chemokine receptor type 2 (Homo sapiens)
- test details: Antagonist activity at CCR2 in human THP1 cells assessed as inhibition of CCL2-induced chemotaxis at 1 uM in presence of 1% human serum
- Format: functional, cell-based
- test conditions: THP-1
result type: inhibition (%)
Give the quantity in %, number only.

Recorded results for 4 compounds are shown here.
[
  {
    "smiles string": "O=C(NCCO)c1ccccc1Oc1ncc(Cl)cc1NS(=O)(=O)c1ccc(Cl)c(Cl)c1",
    "inhibition [%]": 0
  },
  {
    "smiles string": "O=S(=O)(Nc1cc(Cl)cnc1Oc1cccnc1)c1ccc(Cl)c(Cl)c1",
    "inhibition [%]": 5.4
  },
  {
    "smiles string": "O=C(O)c1cccc(Oc2ncc(Cl)cc2NS(=O)(=O)c2ccc(Cl)c(Cl)c2)c1",
    "inhibition [%]": 33
  },
  {
    "smiles string": "O=C(O)c1ccccc1Oc1ncc(Cl)cc1NS(=O)(=O)c1ccc(Cl)c(Cl)c1",
    "inhibition [%]": 37
  }
]

Proceed to the following item.
Provide inhibition value for the following compound: O=C(O)c1ccccc1Oc1ncccc1NS(=O)(=O)c1ccc(Cl)c(Cl)c1 41

---

- assayed system: C-C chemokine receptor type 2 (Homo sapiens, UniProt P41597)
- Sequence (P41597 whole entry, looked up): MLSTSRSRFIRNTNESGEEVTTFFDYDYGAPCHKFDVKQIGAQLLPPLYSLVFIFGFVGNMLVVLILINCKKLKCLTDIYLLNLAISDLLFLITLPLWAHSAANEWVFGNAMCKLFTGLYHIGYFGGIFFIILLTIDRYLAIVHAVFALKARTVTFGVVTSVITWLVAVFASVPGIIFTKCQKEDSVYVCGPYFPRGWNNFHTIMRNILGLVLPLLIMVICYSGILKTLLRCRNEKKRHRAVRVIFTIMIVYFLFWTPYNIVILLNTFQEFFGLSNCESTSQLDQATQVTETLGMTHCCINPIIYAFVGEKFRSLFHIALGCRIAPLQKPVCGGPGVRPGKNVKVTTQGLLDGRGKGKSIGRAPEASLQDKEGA
- test details: Antagonist activity at CCR2 in human THP1 cells assessed as inhibition of CCL2-induced chemotaxis at 1 uM in presence of 0.1% human serum
- Assay type: functional, cell-based
- test conditions: THP-1
The following molecules are shown together with reported inhibition values.
Express it in %; write the number only.

[
  {
    "smiles string": "O=S(=O)(Nc1cc(Cl)cnc1Oc1cccnc1)c1ccc(Cl)c(Cl)c1",
    "result type": "inhibition",
    "readout unit": "%",
    "value": 36
  }
]

// fetch inhibition given entry O=S(=O)(Nc1cc(Cl)cnc1Oc1cncc(Cl)c1)c1ccc(Cl)c(Cl)c1 55

Annotate the molecule O=C(O)c1ccccc1Oc1ncccc1NS(=O)(=O)c1ccc(Cl)c(Cl)c1 with its measured inhibition. 60

Return inhibition for the following molecule: Cc1ncccc1Oc1ncc(Cl)cc1NS(=O)(=O)c1ccc(Cl)c(Cl)c1 72

Retrieve inhibition measured for O=C(O)c1ccccc1Oc1cnccc1NS(=O)(=O)c1ccc(Cl)c(Cl)c1 and print it. 15

---

The next entries give measured IC50 for Cytochrome P450 2D6 (Homo sapiens, UniProt P10635).

Examples with their reported IC50 follow.
[
  {
    "smiles string": "O=C(O)c1ccccc1Oc1ncc(Cl)cc1NS(=O)(=O)c1ccc(Cl)c(Cl)c1",
    "assayed system": "Cytochrome P450 2D6 (Homo sapiens, UniProt P10635)",
    "IC50": "100 µM"
  },
  {
    "smiles string": "Cc1ncccc1Oc1ncc(Cl)cc1NS(=O)(=O)c1ccc(Cl)c(Cl)c1",
    "assayed system": "Cytochrome P450 2D6 (Homo sapiens, UniProt P10635)",
    "IC50": "> 100 µM"
  }
]

In one line, give reported IC50 of the entry O=S(=O)(Nc1cc(Cl)cnc1Oc1cncc(Cl)c1)c1ccc(Cl)c(Cl)c1 . > 100 µM

---

- test details: Lipophilicity, log D of the compound
- Assay type: physicochemical
- test conditions: octanol/water
logD vs 2: at or above is 1 (yes), below is 0 (no).

Completed entries (count: 4):
[
  {
    "smiles string": "O=S(=O)(Nc1cc(Cl)cnc1Oc1cccnc1)c1ccc(Cl)c(Cl)c1",
    "qualitative label": "1 (yes)"
  },
  {
    "smiles string": "N#Cc1ccc(Oc2ncc(Cl)cc2NS(=O)(=O)c2ccc(Cl)c(Cl)c2)cn1",
    "qualitative label": "1 (yes)"
  },
  {
    "smiles string": "O=C(O)c1ccc(Oc2ncc(Cl)cc2NS(=O)(=O)c2ccc(Cl)c(Cl)c2)cc1",
    "qualitative label": "0 (no)"
  },
  {
    "smiles string": "Cc1ncccc1Oc1ncc(C#N)cc1NS(=O)(=O)c1ccc(Cl)c(Cl)c1",
    "qualitative label": "0 (no)"
  }
]

Continue with the next molecule.
Evaluate O=S(=O)(Nc1cc(Cl)cnc1Oc1cncc(Cl)c1)c1ccc(Cl)c(Cl)c1 : logD at minimum 2? 1 (yes)
